- assayed-target: human orexin-2 receptor (Homo sapiens)
- Construct: expressed in transfected cells; host or cells: CHO cells (grown under G418 selection)
- Sequence (O43614 1-444): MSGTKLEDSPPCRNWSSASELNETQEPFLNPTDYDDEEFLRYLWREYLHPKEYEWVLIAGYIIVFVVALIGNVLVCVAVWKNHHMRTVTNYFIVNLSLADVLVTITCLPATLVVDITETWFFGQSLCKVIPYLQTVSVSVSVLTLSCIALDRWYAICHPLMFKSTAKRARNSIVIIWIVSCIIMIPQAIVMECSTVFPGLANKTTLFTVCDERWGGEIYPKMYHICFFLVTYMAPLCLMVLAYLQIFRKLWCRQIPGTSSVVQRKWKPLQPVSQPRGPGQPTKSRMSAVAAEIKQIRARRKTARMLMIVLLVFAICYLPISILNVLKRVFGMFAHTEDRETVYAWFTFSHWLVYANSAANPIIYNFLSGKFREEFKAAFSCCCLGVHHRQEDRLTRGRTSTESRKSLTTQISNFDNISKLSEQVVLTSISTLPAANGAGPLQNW
- assay-overview: FLIPR Ca2+ flux assay, OX2R
- Type: cell-based
- condition: OX1R FLIPR / OX2R FLIPR
Form field: Fold Selective (one value per entry).
Number only, no unit.

Ask: Quick one: Fold Selective of Cc1cc(C)nc(N2CC3CC2CN(C(=O)c2cccnc2OCC(C)C)C3)n1 (centres unmarked) ?
Result: 41

Ask: I would be grateful if you could share the reported Fold Selective for Cc1cc(C)nc(N2CC3CC2CN(C(=O)c2ccccc2OCC(F)(F)F)C3)n1 (centres unmarked) .
Result: 114

Ask: Any idea what its Fold Selective is? The molecule is Cc1cc(C)nc(N2CC3CC2CN(C(=O)c2nccnc2OCC(F)(F)C(F)F)C3)n1 (centres unmarked)
Result: 112

###

Consider the following compounds and their measured Fold Selective readings.
- assayed-target: human orexin-2 receptor (Homo sapiens)
- Construct: expressed in transfected cells; host or cells: CHO cells (grown under G418 selection)
- assay-overview: FLIPR Ca2+ flux assay, OX2R
- Assay type: cell-based
- condition: OX1R FLIPR / OX2R FLIPR
Form: value (number only, do not type unit).

| compound | result-number |
| --- | --- |
| Cc1cc(C#N)nc(N2CC3CC2CN(C(=O)c2ccccc2OCC(F)(F)F)C3)n1 (centres unmarked) | 178 |
| Cc1cc(C)nc(N2CC3CC2CN(C(=O)c2nccnc2OCC(C)(F)F)C3)n1 (centres unmarked) | 165 |
| Cc1cc(C)nc(N2CC3CC2CN(C(=O)c2cccnc2OCC(F)(F)F)C3)n1 (centres unmarked) | 80 |

In the following, a different compound is considered.
Ask: Which Fold Selective value is on record for COCc1ccccc1C(=O)N1CC2CC(C1)N(c1nc(C)cc(C)n1)C2 (centres unmarked) ?
Result: 74

###

- assayed-target: human orexin-2 receptor (Homo sapiens)
- Construct: expressed in transfected cells; host or cells: CHO cells (grown under G418 selection)
- Sequence (O43614 1-444): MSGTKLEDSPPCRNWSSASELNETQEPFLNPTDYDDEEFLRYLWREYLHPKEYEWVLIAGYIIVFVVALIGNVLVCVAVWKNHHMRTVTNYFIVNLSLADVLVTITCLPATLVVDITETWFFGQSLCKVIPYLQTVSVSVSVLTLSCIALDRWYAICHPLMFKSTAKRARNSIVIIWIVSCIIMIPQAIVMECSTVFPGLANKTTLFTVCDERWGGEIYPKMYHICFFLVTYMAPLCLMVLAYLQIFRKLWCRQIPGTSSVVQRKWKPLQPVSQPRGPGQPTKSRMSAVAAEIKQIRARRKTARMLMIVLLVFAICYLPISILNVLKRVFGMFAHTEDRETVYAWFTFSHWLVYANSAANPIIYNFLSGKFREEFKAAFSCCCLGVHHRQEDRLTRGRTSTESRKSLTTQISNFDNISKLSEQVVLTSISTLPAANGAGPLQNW
- assay-overview: FLIPR Ca2+ flux assay, OX2R
- Type: cell-based
- condition: OX1R FLIPR / OX2R FLIPR
metric-name: Fold Selective

Recorded results for 3 compounds are shown here.
| compound | result |
| --- | --- |
| COCCc1ccccc1C(=O)N1CC2CC(C1)N(c1nc(C)cc(C)n1)C2 (stereo not drawn) | 91 |
| Cc1cc(C)nc(N2CC3CC2CN(C(=O)c2cccnc2OCC2CCC2)C3)n1 (stereo not drawn) | 42 |
| Cc1cc(C)nc(N2CC3CC2CN(C(=O)c2ccccc2CC(F)(F)F)C3)n1 (stereo not drawn) | 119 |

Ask: For Cc1cc(C)nc(N2CC3CC2CN(C(=O)c2nccnc2-n2cccn2)C3)n1 (stereo not drawn) , what is its reported Fold Selective?
Result: 68

Ask: Quick one: Fold Selective of Cc1cc(C#N)nc(N2CC3CC2CN(C(=O)c2ccccc2CC(F)(F)F)C3)n1 (stereo not drawn) ?
Result: 81

Ask: Would you kindly share the measured Fold Selective for Cc1cc(C)nc(N2CC3CC2CN(C(=O)c2nccnc2OCC2CC2)C3)n1 (stereo not drawn) ?
Result: 103

Ask: Given the compound Cc1cc(C#N)nc(N2CC3CC2CN(C(=O)c2ccccc2OC(F)F)C3)n1 (stereo not drawn) , what is its reported Fold Selective?
Result: >217

Ask: Name the recorded Fold Selective for Cc1cc(C)nc(N2CC3CC2CN(C(=O)c2nccnc2OCC(F)(F)F)C3)n1 (stereo not drawn) .
Result: >278

Ask: Field request: Fold Selective | item: CCCc1ccccc1C(=O)N1CC2CC(C1)N(c1nc(C)cc(C)n1)C2 (stereo not drawn)
Result: 84

Ask: // Fold Selective lookup, key: Cc1cc(C)nc(N2CC3CC2CN(C(=O)c2ccccc2OC(C)C)C3)n1 (stereo not drawn)
Result: 61

Ask: Returns the measured Fold Selective for the input compound. Input: Cc1cc(C)nc(N2CC3CC2CN(C(=O)c2cc(F)cnc2C2CC2)C3)n1 (stereo not drawn)
Result: 202

Ask: Which Fold Selective is reported for this compound? Cc1cc(C)nc(N2CC3CC2CN(C(=O)c2ccccc2CS(C)(=O)=O)C3)n1 (stereo not drawn)
Result: >213

Ask: Give its Fold Selective value. Item: Cc1cc(C)nc(N2CC3CC2CN(C(=O)c2cccnc2-c2noc(C)n2)C3)n1 (stereo not drawn)
Result: >97

###

- assayed-target: UniProtKB P56718
- assay-overview: FLIPR Ca2+ flux assay, OX1R
- condition: CHO cells expressing the rat orexin-1 receptor; agonist 70 pM Ala-6,12 orexin-A
metric-name: IC50 (nM)
Enter your answer as a number in nM; do not include the unit.

Examples with answers:
| molecule | assayed-target | unit-abbrev | IC50 |
| --- | --- | --- | --- |
| Cc1cc(C)nc(N2CC3CC2CN(C(=O)c2cccc(F)c2C2CC2)C3)n1 (stereo not drawn) [Example 24] | UniProtKB P56718 | nM | 743 |
| Cc1cc(C)nc(N2CC3CC2CN(C(=O)c2nccnc2OCC(C)(F)F)C3)n1 (stereo not drawn) [Example 53] | UniProtKB P56718 | nM | 6450 |

Ask: // map Cc1cc(C)nc(N2CC3CC2CN(C(=O)c2ccccc2OC(F)F)C3)n1 (stereo not drawn) [Example 34] to recorded IC50 (system: UniProtKB P56718)
Result: 2680

Ask: For UniProtKB P56718, provide IC50 of Cc1cc(C)nc(N2CC3CC2CN(C(=O)c2cccnc2OCC(F)(F)F)C3)n1 (stereo not drawn) [Example 22] please.
Result: 1040

###

- assayed-target: rat orexin-1 receptor (Rattus norvegicus)
- Sequence (P56718 1-416): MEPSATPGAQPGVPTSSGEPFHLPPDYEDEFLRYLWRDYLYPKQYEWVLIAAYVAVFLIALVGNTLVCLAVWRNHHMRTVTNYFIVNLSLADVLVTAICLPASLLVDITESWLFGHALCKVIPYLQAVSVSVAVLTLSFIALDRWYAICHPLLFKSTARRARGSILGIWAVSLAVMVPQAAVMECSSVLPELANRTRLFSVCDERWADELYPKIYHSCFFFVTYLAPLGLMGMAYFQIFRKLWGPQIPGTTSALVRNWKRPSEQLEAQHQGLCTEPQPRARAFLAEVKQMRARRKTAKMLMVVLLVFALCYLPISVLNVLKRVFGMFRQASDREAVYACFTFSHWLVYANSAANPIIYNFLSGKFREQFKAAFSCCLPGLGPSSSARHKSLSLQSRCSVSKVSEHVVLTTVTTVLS
- assay-overview: FLIPR Ca2+ flux assay, OX1R
- condition: CHO cells expressing the rat orexin-1 receptor; agonist 70 pM Ala-6,12 orexin-A
Below: a set of entries, each annotated with reported pIC50.
Would you please state pIC50, meaning minus log10 of the concentration in mol/L, as a bare number?

Ask: // pIC50 lookup, key: Cc1cc(C)nc(N2CC3CC2CN(C(=O)c2cccnc2OC(C)C)C3)n1 (centres unmarked)
Result: 5.57

Ask: # lookup: pIC50 of CCCc1ccccc1C(=O)N1CC2CC(C1)N(c1nc(C)cc(C)n1)C2 (centres unmarked)
Result: 5.93
